Molecular target: T1, human TREM2 (human, UniProt Q9NZC2 19-174, limits assumed)
T1 construct: also called triggering receptor expressed on myeloid cells 2
T1 sequence: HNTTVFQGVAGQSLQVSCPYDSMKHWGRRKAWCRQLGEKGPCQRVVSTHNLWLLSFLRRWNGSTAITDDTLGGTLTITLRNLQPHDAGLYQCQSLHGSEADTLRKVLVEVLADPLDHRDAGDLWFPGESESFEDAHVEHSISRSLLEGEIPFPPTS
Assay: 2nd screen 10 nM
Some binders, each annotated with its measured Binding Signal (fold over 6E7 Parental antibody).
Assay Endpoint: Binding Signal (fold over 6E7 Parental antibody) (fold)

Binder: V28 (antibody, V domains shown) VH: EVQLVQSGAEVKKPGESLKISCKGSGYSFQSYWIAWVRQMPGKGLEWMGTIYPGDSDTRYSPSFQGQVTISADKSISTAYLQWSSLKASDTAMYFCARQRTFFYDSSDYFDYWGQGTLVTVSS VL: DIQMTQSPSSVSASVGDRVTITCRASQGISSWLAWYQQKPGKAPKLLIYAASSLQSGVPSRFSGSGSGTDFTLTISSLQPEDFATYFCQQADSLPRTFGQGTKLEIK
Observed Value: 3.61
//
Binder: V14 (antibody, V domains shown) VH: EVQLVQSGAEVKKPGESLKISCKGSGYSFGSYWIAWVRQMPGKGLEWMGIIYPGDQDTRYSPSFQGQVTISADKSISTAYLQWSSLKASDTAMYFCARGRTFYYDSSDYFDYWGQGTLVTVSS VL: DIQMTQSPSSVSASVGDRVTITCRASQGISSWLAWYQQKPGKAPKLLIYAASRLQNGVPSRFSGSGSGTDFTLTISSLQPEDFATYFCQQADSFPRTFGQGTKLEIK
Observed Value: 4.64
//
Binder: V88 (antibody, V domains shown) VH: EVQLVQSGAEVKKPGESLKISCKGSGYSFGSYWIAWVRQMPGKGLEWMGIIYPGDSDTRYSPSFQGQVTISADKSISTAYLQWSSLKASDTAMYFCARQRTFYYDSSDYFDYWGQGTLVTVSS VL: DIQMTQSPSSVSASVGDRVTITCRASQGISSWLAWYQQKPGKAPKLLIYAASRLQRGVPSRFSGSGSGTDFTLTISSLQPEDFATYFCQQADSSPRTFGQGTKLEIK
Observed Value: 5.3
//
Binder: V13 (antibody, V domains shown) VH: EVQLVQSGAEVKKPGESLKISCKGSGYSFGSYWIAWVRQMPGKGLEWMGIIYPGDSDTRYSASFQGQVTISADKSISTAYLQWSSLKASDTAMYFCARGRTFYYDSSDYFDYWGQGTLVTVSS VL: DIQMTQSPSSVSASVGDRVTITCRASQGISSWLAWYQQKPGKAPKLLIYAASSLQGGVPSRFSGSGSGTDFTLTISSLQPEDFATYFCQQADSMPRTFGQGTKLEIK
Observed Value: 1.35
//
Binder: V39 (antibody, V domains shown) VH: EVQLVQSGAEVKKPGESLKISCKGSGYSFGSYWIAWVRQMPGKGLEWMGIIYPGDSDTRYNPSFQGQVTISADKSISTAYLQWSSLKASDTAMYFCARGRTFYYDSSDYFDYWGQGTLVTVSS VL: DIQMTQSPSSVSASVGDRVTITCRASQGISSWLAWYQQKPGKAPKLLIYAASSLVNGVPSRFSGSGSGTDFTLTISSLQPEDFATYFCQQADSSPRTFGQGTKLEIK
Observed Value: 5.81
//
Binder: V72 (antibody, V domains shown) VH: EVQLVQSGAEVKKPGESLKISCKGSGYSFTSYWIGWVRQMPGKGLEWMGIIYPGDSDTRYSPSFQGQVTISADKSISTAYLQWSSLKASDTAMYFCARGRTFYYDSSDYFDYWGQGTLVTVSS VL: DIQMTQSPSSVSASVGDRVTITCRASQGISSWLAWYQQKPGKAPKLLIYAASSLVNGVPSRFSGSGSGTDFTLTISSLQPEDFATYFCQQADSYPRTFGQGTKLEIK
Observed Value: 4.01
//
Binder: V3 (antibody, V domains shown) VH: EVQLVQSGAEVKKPGESLKISCKGSGYSFASYWIAWVRQMPGKGLEWMGIIYPGDSDTRYSPSFQDQVTISADKSISTAYLQWSSLKASDTAMYFCARGRTFYYDSSDYFDYWGQGTLVTVSS VL: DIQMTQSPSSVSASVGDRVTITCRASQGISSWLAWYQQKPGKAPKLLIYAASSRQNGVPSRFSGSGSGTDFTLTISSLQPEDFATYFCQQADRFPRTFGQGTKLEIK
Observed Value: 2.24
//
Binder: V49 (antibody, V domains shown) VH: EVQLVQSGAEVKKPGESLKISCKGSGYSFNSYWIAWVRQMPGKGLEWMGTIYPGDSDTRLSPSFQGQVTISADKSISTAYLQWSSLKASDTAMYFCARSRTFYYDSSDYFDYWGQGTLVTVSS VL: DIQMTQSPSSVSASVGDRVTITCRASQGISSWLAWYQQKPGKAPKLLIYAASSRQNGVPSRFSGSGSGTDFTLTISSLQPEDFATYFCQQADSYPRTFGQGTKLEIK
Observed Value: 6.58
//
Binder: V29 (antibody, V domains shown) VH: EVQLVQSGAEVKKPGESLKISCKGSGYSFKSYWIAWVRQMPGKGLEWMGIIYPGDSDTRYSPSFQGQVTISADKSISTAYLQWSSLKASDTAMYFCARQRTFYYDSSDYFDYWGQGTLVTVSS VL: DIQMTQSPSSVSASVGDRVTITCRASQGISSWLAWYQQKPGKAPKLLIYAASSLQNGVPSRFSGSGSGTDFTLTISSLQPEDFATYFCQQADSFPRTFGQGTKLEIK
Observed Value: 1.67
//
Binder: V60 (antibody, V domains shown) VH: EVQLVQSGAEVKKPGESLKISCKGSGYHFTSYWIAWVRQMPGKGLEWMGIIYPGDSDVRYSPSFQGQVTISADKSISTAYLQWSSLKASDTAMYFCARQRTFYYDSSDYSDYWGQGTLVTVSS VL: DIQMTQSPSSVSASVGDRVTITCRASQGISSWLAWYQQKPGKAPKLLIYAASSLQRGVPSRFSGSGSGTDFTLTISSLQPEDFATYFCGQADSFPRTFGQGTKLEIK
Observed Value: 3.63
